Entry source: ChEMBL document CHEMBL1133743

Observed Ki values for Cholecystokinin receptor type A (Rattus norvegicus, UniProt P30551) are listed in what follows.
*1 amine or outer side, *2 acyl side, *3 side chain or, on linkers, in order; H or OH if unused. Where a SMILES comes first, the peptide text is derived from it. Side-chain parts run from the residue outwards. [ ]: non-standard residue; d: D form. The star is where a group is joined. NMeF = CN[C@@H](Cc1ccccc1)C(=O)O; NMeD = CN[C@@H](CC(=O)O)C(=O)O; NH(2-Me-phenyl) = Cc1ccccc1N*; X3 = O=C(/C=C/c1ccc(O)cc1)*; Nle = CCCC[C@H](N)C(=O)O; X1 = O=C(Cc1ccc(O)cc1)*; Boc = CC(C)(C)OC(=O)*; CO = O=C([*:1])[*:2]
property-label: Ki (nM)

// solved cases for Ki follow
molecule	Ki / nM
Cc1ccccc1NC(=O)NCCCC[C@H](NC(=O)[C@H](Cc1c[nH]c2ccccc12)NC(=O)OC(C)(C)C)C(=O)N[C@H](CC(=O)O)C(=O)N(C)[C@@H](Cc1ccccc1)C(N)=O	0.53
CCCC[C@H](NC(=O)Cc1ccc(O)cc1)C(=O)NCC(=O)N[C@@H](Cc1c[nH]c2ccccc12)C(=O)N[C@@H](CCCCNC(=O)/C=C/c1ccc(O)cc1)C(=O)N[C@@H](CC(=O)O)C(=O)N(C)[C@@H](Cc1ccccc1)C(N)=O (X1-[Nle]GWK(X3)D[NMeF]-NH2)	3.4
CCCC[C@H](NC(=O)Cc1ccc(O)cc1)C(=O)NCC(=O)N[C@@H](Cc1c[nH]c2ccccc12)C(=O)N[C@@H](CCCC)C(=O)N[C@@H](CC(=O)O)C(=O)N(C)[C@@H](Cc1ccccc1)C(N)=O (X1-[Nle]GW[Nle]D[NMeF]-NH2)	51

1: Cc1ccccc1NC(=O)NCCCC[C@H](NC(=O)[C@H](Cc1c[nH]c2ccccc12)NC(=O)OC(C)(C)C)C(=O)N[C@@H](CC(=O)O)C(=O)N[C@@H](Cc1ccccc1)C(N)=O (Boc-WK([CO-NH(2-Me-phenyl)])DF-NH2)
2: CCCC[C@H](NC(=O)Cc1ccc(O)cc1)C(=O)NCC(=O)N[C@@H](Cc1c[nH]c2ccccc12)C(=O)N[C@@H](CCCC)C(=O)N(C)[C@@H](CC(=O)O)C(=O)N[C@@H](Cc1ccccc1)C(N)=O (X1-[Nle]GW[Nle][NMeD]F-NH2)
3: Cc1ccccc1NC(=O)NCCCC[C@H](NC(=O)[C@H](Cc1c[nH]c2ccccc12)NC(=O)OC(C)(C)C)C(=O)N[C@@H](CC(=O)O)C(=O)N(C)[C@@H](Cc1ccccc1)C(N)=O
Sort the molecules on Ki; start with the lowest figure. Answer by listing the labels in the requested order.
3, 2, 1
